measured-on: human vasopressin V1A receptor (Homo sapiens, UniProt P37288)
Sequence (P37288 whole entry): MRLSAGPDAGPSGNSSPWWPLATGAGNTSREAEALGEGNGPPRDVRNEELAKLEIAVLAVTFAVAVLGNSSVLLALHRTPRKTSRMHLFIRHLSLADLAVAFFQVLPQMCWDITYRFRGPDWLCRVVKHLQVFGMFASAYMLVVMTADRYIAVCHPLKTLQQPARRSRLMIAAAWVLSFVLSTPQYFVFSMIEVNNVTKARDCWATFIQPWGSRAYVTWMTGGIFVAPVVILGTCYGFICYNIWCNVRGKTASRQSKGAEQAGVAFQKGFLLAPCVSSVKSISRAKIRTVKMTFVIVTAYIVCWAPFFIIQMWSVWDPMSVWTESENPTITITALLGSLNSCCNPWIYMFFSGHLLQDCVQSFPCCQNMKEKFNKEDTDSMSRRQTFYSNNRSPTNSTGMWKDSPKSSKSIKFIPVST
assay-name: cell-based

compound	EC50, µM
O=C(/C=C/c1ccc(O)cc1)c1ccc(O)cc1O [Isoliquiritigenin, 4,2′,4′-Trihydroxychalcone]	78.6

###

measured-on: human dopamine D3 receptor (Homo sapiens)
Sequence (P35462 whole entry): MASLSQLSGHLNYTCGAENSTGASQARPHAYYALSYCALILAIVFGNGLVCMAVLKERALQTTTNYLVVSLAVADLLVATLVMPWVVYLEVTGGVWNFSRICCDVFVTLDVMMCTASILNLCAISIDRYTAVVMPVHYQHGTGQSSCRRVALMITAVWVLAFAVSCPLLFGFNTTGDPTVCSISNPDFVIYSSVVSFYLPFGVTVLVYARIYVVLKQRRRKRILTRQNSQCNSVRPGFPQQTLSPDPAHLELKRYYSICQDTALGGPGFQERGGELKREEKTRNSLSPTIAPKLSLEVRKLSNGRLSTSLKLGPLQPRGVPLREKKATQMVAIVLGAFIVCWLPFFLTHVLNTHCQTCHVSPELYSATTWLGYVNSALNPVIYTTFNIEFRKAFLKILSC
assay-name: cell-based
pEC50: −log10 of the molar value.

compound	pEC50
O=C(/C=C/c1ccc(O)cc1)c1ccc(O)cc1O [Isoliquiritigenin, 4,2′,4′-Trihydroxychalcone]	4.21

###

measured-on: hMAO-B (Homo sapiens, UniProt P27338)
Sequence (P27338 whole entry): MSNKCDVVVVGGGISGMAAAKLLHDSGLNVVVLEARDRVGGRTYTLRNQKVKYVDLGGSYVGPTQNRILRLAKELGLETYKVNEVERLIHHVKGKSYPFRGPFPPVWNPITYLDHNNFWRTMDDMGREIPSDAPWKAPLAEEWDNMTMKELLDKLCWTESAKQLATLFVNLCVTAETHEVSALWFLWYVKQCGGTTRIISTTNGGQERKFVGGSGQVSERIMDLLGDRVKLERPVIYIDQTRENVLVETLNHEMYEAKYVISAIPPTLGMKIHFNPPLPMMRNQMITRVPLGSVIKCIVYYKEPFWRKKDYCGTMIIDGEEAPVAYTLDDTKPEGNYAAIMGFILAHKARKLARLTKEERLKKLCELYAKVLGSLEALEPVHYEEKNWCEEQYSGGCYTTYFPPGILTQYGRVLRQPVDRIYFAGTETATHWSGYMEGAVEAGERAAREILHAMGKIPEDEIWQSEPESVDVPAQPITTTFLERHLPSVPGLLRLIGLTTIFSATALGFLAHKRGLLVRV
endpoint-name: IC50 (nM)

compound	endpoint-name	unit-abbrev	observed-value
O=C(/C=C/c1ccc(O)cc1)c1ccc(O)cc1O [Isoliquiritigenin, 4,2′,4′-Trihydroxychalcone]	IC50	nM	330
